Test system: Rat2 fibroblasts stably transformed with a plasmid containing a CMV promotor controlled v-Src/Hu c-Src fusion gene
Assay: Anchorage Independent Src-transformed Fibroblast Proliferation Assay
Details: Rattus norvegicus, Rat2, 120 h, read-out: anch-indep src-tx fib IC50, suspension growth, MTS on Day 5
Please go through the items and note down their pIC50.
// pIC50 here means minus log10 of the molar concentration (mol/L)

IN: I would be grateful if you could share the reported pIC50 for `CCOC(=O)CC1CCN(Cc2ccc(-c3ccc4c(Nc5cc(OC)c(Cl)cc5Cl)c(C#N)cnc4c3)cc2)CC1` .
OUT: 7.04

IN: I would be grateful if you could share the reported pIC50 for `COc1cc(Nc2c(C#N)cnc3cc(-c4ccc(CN5CCOCC5)c(CN5CCOCC5)c4)ccc23)c(Cl)cc1C` .
OUT: 6.14

IN: I would be grateful if you could share the reported pIC50 for `CCN1CCN(Cc2cc(-c3ccc4c(Nc5cc(OC)c(Cl)cc5Cl)c(C#N)cnc4c3)cs2)CC1` .
OUT: 6.80

IN: I would be grateful if you could share the reported pIC50 for `COc1cc(Nc2c(C#N)cnc3cc(-c4ccc(CN5CCCCC5)s4)ccc23)c(Cl)cc1Cl` .
OUT: 6.85

IN: I would be grateful if you could share the reported pIC50 for `COc1cc(Nc2c(C#N)cnc3cc(-c4ccc(CN5CCC(CC(=O)O)CC5)cc4)ccc23)c(Cl)cc1Cl` .
OUT: 6.47

IN: I would be grateful if you could share the reported pIC50 for `N#Cc1cnc2cc(-c3ccc(CN4CCOCC4)o3)ccc2c1Nc1ccc(Cl)cc1Cl` .
OUT: 5.82

IN: I would be grateful if you could share the reported pIC50 for `COC(=O)C1CCN(Cc2ccc(-c3ccc4c(Nc5cc(OC)c(Cl)cc5Cl)c(C#N)cnc4c3)cc2)CC1` .
OUT: 6.41

IN: I would be grateful if you could share the reported pIC50 for `COc1cc(Nc2c(C#N)cnc3cc(-c4cccc(CN5CCN(C)CC5)c4)ccc23)c(Cl)cc1Cl` .
OUT: 5.85

IN: I would be grateful if you could share the reported pIC50 for `COc1cc(Nc2c(C#N)cnc3cc(-c4ccc(CN5CCOCC5)n4C)ccc23)c(Cl)cc1Cl` .
OUT: 5.22

IN: I would be grateful if you could share the reported pIC50 for `COc1cc(Nc2c(C#N)cnc3cc(-c4csc(CN5CCOCC5)c4)ccc23)c(Cl)cc1F` .
OUT: 6.89

IN: I would be grateful if you could share the reported pIC50 for `COc1ccc(Cl)c(Nc2c(C#N)cnc3cc(-c4csc(CN5CCOCC5)c4)ccc23)c1` .
OUT: 7.05

IN: I would be grateful if you could share the reported pIC50 for `COc1cc(Nc2c(C#N)cnc3cc(-c4csc(CN5CCOCC5)c4)c(OC)cc23)c(Cl)cc1Cl` .
OUT: 6.80

IN: I would be grateful if you could share the reported pIC50 for `COc1cc(Nc2c(C#N)cnc3cc(-c4cccc(CCN5CCOCC5)c4)c(OC)cc23)c(Cl)cc1Cl` .
OUT: 4.90

IN: I would be grateful if you could share the reported pIC50 for `COc1cc(Nc2c(C#N)cnc3cc(-c4ccc(CN(CCO)CCO)o4)ccc23)c(Cl)cc1Cl` .
OUT: 5.96

IN: I would be grateful if you could share the reported pIC50 for `COc1cc(Nc2c(C#N)cnc3cc(-c4ccc(CN5CCN(CCO)CC5)o4)ccc23)c(Cl)cc1Cl` .
OUT: 6.54

IN: I would be grateful if you could share the reported pIC50 for `COc1cc(Nc2c(C#N)cnc3cc(-c4csc(CN5CCOCC5)c4)ccc23)c(C)cc1Cl` .
OUT: 6.05

IN: I would be grateful if you could share the reported pIC50 for `COc1cc(Nc2c(C#N)cnc3cc(-c4ccc(CN5CCOCC5)cc4)ccc23)c(Cl)cc1F` .
OUT: 6.10

IN: I would be grateful if you could share the reported pIC50 for `COc1cc(Nc2c(C#N)cnc3cc(-c4ccc(CNCCS(C)(=O)=O)o4)ccc23)c(Cl)cc1Cl` .
OUT: 6.38

IN: I would be grateful if you could share the reported pIC50 for `COc1cc(Nc2c(C#N)cnc3cc(-c4ccc(CN5CCSCC5)cc4)ccc23)c(Cl)cc1Cl` .
OUT: 5.55

IN: I would be grateful if you could share the reported pIC50 for `CCN1CCN(Cc2cc(-c3ccc4c(Nc5ccc(Cl)cc5Cl)c(C#N)cnc4c3)cs2)CC1` .
OUT: 6.05

----------
System: Rat2 fibroblasts stably transformed with a plasmid containing a CMV promotor controlled v-Src/Hu c-Src fusion gene
Assay: Anchorage Independent Src-transformed Fibroblast Proliferation Assay
Conditions: Rattus norvegicus, Rat2, 120 h, read-out: anch-indep src-tx fib IC50, suspension growth, MTS on Day 5
Please go through the items and note down their IC50.
Supply the numeric figure in nM, leaving out any unit text.

IN: I would be grateful if you could share the reported IC50 for `COc1cc(Nc2c(C#N)cnc3cc(-c4ccc(CNCCS(C)(=O)=O)cc4)ccc23)c(Cl)cc1Cl` .
OUT: 850

IN: I would be grateful if you could share the reported IC50 for `N#Cc1cnc2cc(-c3ccc(CCN4CCOCC4)s3)ccc2c1Nc1ccc(Cl)cc1Cl` .
OUT: 2700

IN: I would be grateful if you could share the reported IC50 for `N#Cc1cnc2cc(-c3csc(CN4CCOCC4)c3)ccc2c1Nc1ccc(Cl)cc1Cl` .
OUT: 1300

----------
Please go through the items and note down their IC50.
Test system: Rat2 fibroblasts stably transformed with a plasmid containing a CMV promotor controlled v-Src/Hu c-Src fusion gene
Experiment: Anchorage Independent Src-transformed Fibroblast Proliferation Assay
Settings: Rattus norvegicus, Rat2, 120 h, read-out: anch-indep src-tx fib IC50, suspension growth, MTS on Day 5
Supply the numeric figure in µM, leaving out any unit text.

IN: I would be grateful if you could share the reported IC50 for `COc1cc(Nc2c(C#N)cnc3cc(-c4ccc[nH]4)ccc23)c(Cl)cc1Cl` .
OUT: 0.56

IN: I would be grateful if you could share the reported IC50 for `COc1cc(Nc2c(C#N)cnc3cc(-c4cc(CN5CCOCC5)c(CN5CCOCC5)s4)ccc23)c(Cl)cc1Cl` .
OUT: 0.04

IN: I would be grateful if you could share the reported IC50 for `COc1cc(Nc2c(C#N)cnc3cc(-c4ccc(CNCCS(=O)(=O)c5ccccc5)cc4)ccc23)c(Cl)cc1Cl` .
OUT: 10.2

IN: I would be grateful if you could share the reported IC50 for `COc1cc(Nc2c(C#N)cnc3cc(C#CCN4CCOCC4)ccc23)c(Cl)cc1Cl` .
OUT: 6.5

IN: I would be grateful if you could share the reported IC50 for `COc1cc(Nc2c(C#N)cnc3cc(-c4ccc(CNCCc5ccccn5)cc4)ccc23)c(Cl)cc1Cl` .
OUT: 0.45

----------
Test system: Human adenocarcinoma cell line LoVo
Assay: Cell Based Screen for Inhibitors of Raf Kinase, LoVo cells
Conditions: Homo sapiens, 96 h, four days, SRB
Procedure: […] Cells are plated at 2000 cells per well for cell line LoVo and 1500 cells for cell line CaCo-2 in 96 well plates. […] For the quantitative screen, compound is first diluted in DMSO to generate concentrations of compound or reference standard of: 1, 5, 10 and 25 µM. […] The absorbance of each well is determined at 550 or 562 nm using a microtiter plate reader. […]
Please go through the items and note down their log10 IC50.
For clarity, the numbers are log10 values of IC50 expressed in nM.

IN: // lookup log10 IC50 | system=Human adenocarcinoma cell line LoVo | key= `N#Cc1cnc2cc(-c3csc(CN4CCOCC4)c3)ccc2c1Nc1ccc(Oc2ccccc2)cc1`
OUT: 3.57

IN: // lookup log10 IC50 | system=Human adenocarcinoma cell line LoVo | key= `COc1cc2c(Nc3ccc(Sc4nccn4C)c(Cl)c3)c(C#N)cnc2cc1-c1csc(CN2CCN(C)CC2)c1`
OUT: 1.88

IN: // lookup log10 IC50 | system=Human adenocarcinoma cell line LoVo | key= `Cn1ccnc1Sc1ccc(Nc2c(C#N)cnc3cc(-c4cccc(CN5CCOCC5)n4)ccc23)cc1Cl`
OUT: 0.98

IN: // lookup log10 IC50 | system=Human adenocarcinoma cell line LoVo | key= `Cn1ccnc1Sc1ccc(Nc2c(C#N)cnc3cc(-c4ccc(CN5CCSCC5)cn4)ccc23)cc1Cl`
OUT: 1.18

IN: // lookup log10 IC50 | system=Human adenocarcinoma cell line LoVo | key= `CCN1CCN(Cc2ccc(-c3ccc4c(Nc5ccc(Sc6nccn6C)c(Cl)c5)c(C#N)cnc4c3)nc2)CC1`
OUT: 0.90

IN: // lookup log10 IC50 | system=Human adenocarcinoma cell line LoVo | key= `COc1cc2c(Nc3ccc(Sc4nccn4C)c(Cl)c3)c(C#N)cnc2cc1-c1csc(CN2CCOCC2)c1`
OUT: 1.30

IN: // lookup log10 IC50 | system=Human adenocarcinoma cell line LoVo | key= `CCN1CCN(Cc2cccc(-c3ccc4c(Nc5ccc(Sc6nccn6C)c(Cl)c5)c(C#N)cnc4c3)n2)CC1`
OUT: 0.92

Taken from patent EP1268431B1.
